# Target system: human CCR8 (human, UniProt P51685 1-355)
# Assay: cell-based or functional assay
Parameter: hCCL1 (100 nM) residual response, Protocol #2, mAb 0.4 µg/mL
Include the unit after the number when you answer.

Request: Give the measured hCCL1 (100 nM) residual response, Protocol #2, mAb 0.4 µg/mL of 3-49 (antibody, V domains shown) VH: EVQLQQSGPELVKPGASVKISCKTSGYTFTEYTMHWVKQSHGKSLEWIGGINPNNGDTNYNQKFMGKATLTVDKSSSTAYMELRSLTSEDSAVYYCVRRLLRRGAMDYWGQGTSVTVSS VL: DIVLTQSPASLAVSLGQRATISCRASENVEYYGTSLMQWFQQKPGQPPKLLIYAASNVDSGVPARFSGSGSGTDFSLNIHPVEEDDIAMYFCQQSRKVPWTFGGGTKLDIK .
Result: 102%

Request: Consider the binder 3-5 (antibody, V domains shown) VH: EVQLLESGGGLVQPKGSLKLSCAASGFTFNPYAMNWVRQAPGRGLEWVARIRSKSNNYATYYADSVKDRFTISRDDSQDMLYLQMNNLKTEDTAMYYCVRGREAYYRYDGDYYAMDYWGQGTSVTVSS VL: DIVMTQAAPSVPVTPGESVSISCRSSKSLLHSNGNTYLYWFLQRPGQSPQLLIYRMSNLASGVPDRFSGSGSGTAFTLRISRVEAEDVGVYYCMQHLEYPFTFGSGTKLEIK and give its measured hCCL1 (100 nM) residual response, Protocol #2, mAb 0.4 µg/mL.
Result: 69%

Request: Quick check: hCCL1 (100 nM) residual response, Protocol #2, mAb 0.4 µg/mL of 3-81 (antibody, human IgG1, kappa, V domains shown, humanized, human IgG1 kappa) VH: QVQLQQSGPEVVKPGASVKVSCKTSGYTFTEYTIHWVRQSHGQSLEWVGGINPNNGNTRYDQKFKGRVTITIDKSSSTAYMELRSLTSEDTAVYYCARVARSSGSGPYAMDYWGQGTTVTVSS VL: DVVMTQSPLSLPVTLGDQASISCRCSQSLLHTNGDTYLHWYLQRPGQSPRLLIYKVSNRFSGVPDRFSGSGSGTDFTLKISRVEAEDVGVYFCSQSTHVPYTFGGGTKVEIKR ?
Result: 66%
